tested on: EKVX NSCLC; experiment: NCI-60 one-dose screen, 48 h; conditions: 10 µM unless noted
About 83,000 compounds went through this panel and 20% of them were active in at least one assay; those are over-represented in the sample as a whole. The source made the active and inactive calls. How the source made its calls: active means growth percent below 10; inactive means the rest.
API: response.call in active, inactive

Below, 5 molecules whose answers are already recorded.
MOLECULE	TARGET ENTITY	ASSIGNED CLASS
COc1ccc2c(c1)O/C(=C\c1cccc(OCC(=O)Nc3nc4ccccc4s3)c1)C2=O	EKVX NSCLC	inactive
Cc1cccc(-c2nc(N(C)c3ccc4ncsc4c3)c3ccccc3n2)n1	EKVX NSCLC	inactive
CC(=O)c1nc(Nc2ccc(C)cc2)sc1C	EKVX NSCLC	inactive
COc1ccc2[nH]c(O)c(C(=Nc3ccc(N(C)C(=O)CN4CCN(C)CC4)cc3)c3ccccc3)c2c1	EKVX NSCLC	inactive
N#C/C(=C\c1ccc(-c2ccccc2F)o1)c1nc(-c2ccco2)cs1	EKVX NSCLC	inactive

Test call, this molecule: `CCCCNC(=O)Oc1ccc2c(=O)c3sc4c(=O)c5ccccc5c(=O)c4c3c(=O)c2c1`
active

Name the outcome recorded for COCCc1ccc(OCC(O)CNC(C)C)cc1 (stereo not given) in the assay.
inactive

Hey, what did the test say about `COc1ccc2c(c1)O/C(=C\c1cccc(OCC(=O)Nc3nc(C)c(C)s3)c1)C2=O` ?
active

Could you check what this test reported for `COc1cc(/C=C2\C(=O)ON=C2C)cc(OC)c1OC` ?
inactive

Record request — test call for `Cc1cc(NCc2cc(Nc3ccnc4cc(Cl)ccc34)ccc2F)nc(Cl)n1`
inactive
